Target: UniProtKB P29274
Sequence (P29274 whole entry): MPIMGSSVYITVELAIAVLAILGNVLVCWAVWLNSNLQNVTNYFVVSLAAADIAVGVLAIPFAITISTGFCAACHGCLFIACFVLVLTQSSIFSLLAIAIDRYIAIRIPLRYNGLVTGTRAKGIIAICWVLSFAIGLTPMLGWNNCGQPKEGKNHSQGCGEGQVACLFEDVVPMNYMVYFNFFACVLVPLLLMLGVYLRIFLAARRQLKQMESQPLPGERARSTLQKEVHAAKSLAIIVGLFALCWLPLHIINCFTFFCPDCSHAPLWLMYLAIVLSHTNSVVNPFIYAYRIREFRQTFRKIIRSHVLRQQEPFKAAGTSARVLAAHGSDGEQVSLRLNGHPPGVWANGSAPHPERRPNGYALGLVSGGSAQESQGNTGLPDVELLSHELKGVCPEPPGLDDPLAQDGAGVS
Test: Displacement of [3H]ZM241385 from human A2AR expressed in CHO cell membranes at 1 uM measured after 60 mins by scintillation counting method relative to control
test-readout: inhibition (%)

1. N#Cc1c(N)nc(NCCO)c(C#N)c1-c1ccco1: 18
2. CC(=O)Nc1nc(SCCO)c(C#N)c(-c2ccco2)c1C#N: 11
3. N#Cc1c(N)nc(SCCO)c(C#N)c1-c1cccnc1: 7

A. N#Cc1c(N)nc(SCCO)c(C#N)c1-c1ccsc1
B. COC(=O)CSc1nc(N)c(C#N)c(-c2ccco2)c1C#N
IN: Quick check, higher inhibition between A and B ? Your answer should be the label attached to the chosen record.
OUT: B
